# ASSAY_TARGET: human Cot/Tpl2 kinase (Homo sapiens, UniProt P41279)
# Construct: human Cot/Tpl2 kinase construct encoding residues 30-398; 6His (N); made in house; host or cells: Sf9 insect cells, baculovirus system (BD Biosciences)
# Sequence (P41279 30-398): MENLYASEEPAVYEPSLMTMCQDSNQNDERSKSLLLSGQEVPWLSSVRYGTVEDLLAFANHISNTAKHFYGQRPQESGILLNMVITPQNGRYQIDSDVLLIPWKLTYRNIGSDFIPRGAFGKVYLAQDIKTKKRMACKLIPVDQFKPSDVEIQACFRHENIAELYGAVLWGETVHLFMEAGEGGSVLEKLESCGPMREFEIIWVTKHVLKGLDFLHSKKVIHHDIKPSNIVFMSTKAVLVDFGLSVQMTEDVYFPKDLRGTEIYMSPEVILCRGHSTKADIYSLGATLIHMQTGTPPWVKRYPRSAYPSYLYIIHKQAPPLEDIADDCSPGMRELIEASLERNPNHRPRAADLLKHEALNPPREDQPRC
# TEST_SUMMARY: Tpl2/Cot kinase assay: GST-MEK1 phosphorylation detected by ELISA (DELFIA Eu)
# Assay type: biochemical
# EXPERIMENTAL_CONDITIONS: Table 2; Tpl2/Cot kinase, GST-MEK1 substrate, 50 uM ATP
pIC50: −log10 of the molar value.
In this section, each of the compounds is paired with its reported pIC50.

Observe how each entry below is paired with its result.
# COMPOUND, REPORTED
records = [
    ("N#Cc1cnc2c(Br)cc(NCc3ccc(OC(F)(F)C(F)F)cc3)cc2c1Nc1ccc(F)c(Cl)c1", "< 4.40"),
    ("N#Cc1c(Nc2ccc(F)c(Cl)c2)c2cc(NCc3cccc[n+]3[O-])ccc2[nH]c1=O", "< 4.40"),
    ("Fc1ccc(Nc2ncncc2-c2ccc(NCc3cnc[nH]3)cc2)cc1Cl", "< 5.52"),
]

State its pIC50: N#Cc1cnc2ccc(NCCN3CCOCC3)cc2c1Nc1ccc(Br)cc1 < 5.00

Entry CN(C)Cc1cn(C2CCCC2Nc2cc(Cl)c3ncc(C#N)c(Nc4ccc(F)c(Cl)c4)c3c2)nn1 (stereo not shown) needs its pIC50 filled in; supply it. < 5.52

// Input: Cn1cc(Cl)c(CNc2ccc3ncc(C#N)c(Nc4ccc(F)c(Cl)c4)c3c2)n1 . Output its pIC50 only. < 4.40

---

Recorded IC50 values for a group of compounds are listed next.
# ASSAY_TARGET: human Cot/Tpl2 kinase (Homo sapiens, UniProt P41279)
# Construct: human Cot/Tpl2 kinase construct encoding residues 30-398; 6His (N); made in house; host or cells: Sf9 insect cells, baculovirus system (BD Biosciences)
# TEST_SUMMARY: Tpl2/Cot kinase assay: GST-MEK1 phosphorylation detected by ELISA (DELFIA Eu)
# Assay type: biochemical
# EXPERIMENTAL_CONDITIONS: 0.4 nM Tpl2, 35 nM GST-MEK1, 50 uM ATP, 1 h at 30° C.

Reference set, count: 6
# COMPOUND, IC50
measured = [
    ("N#Cc1cnc2ccc(NCC3CCCNC3)cc2c1Nc1ccc(F)c(Cl)c1 (stereo not shown) [Example 64]", "> 40 µM"),
    ("CN(C)Cc1cc(NCCN2CCOCC2)cc2c(Nc3cccc(Br)c3)c(C#N)cnc12 [Example 134]", "> 40 µM"),
    ("N#Cc1cnc2c(C(=O)NCc3ccccc3)cc(NCc3cccnc3)cc2c1Nc1cccc(Cl)c1 [Example 80]", "> 40 µM"),
    ("N#Cc1cnc2c(Br)cc(NC(=O)Cc3cnc[nH]3)cc2c1Nc1ccc(F)c(Cl)c1 [Example 117]", "> 40 µM"),
    ("N#Cc1cnc2cc(N3CCOCC3)c(NCc3cnc[nH]3)cc2c1Nc1ccc(F)c(Cl)c1 [Example 160]", "> 40 µM"),
    ("CC(C)NC(=O)c1cc(NCc2cccnc2)cc2c(Nc3ccc(F)c(Cl)c3)c(C#N)cnc12 [Example 93]", "> 40 µM"),
]

Attention now turns to another entry.
Provide IC50, system human Cot/Tpl2 kinase (Homo sapiens, UniProt P41279), entry COC(=O)Cn1ccnc1CNc1ccc2ncc(C#N)c(Nc3ccc(F)c(Cl)c3)c2c1 [Example 137] 0.028 µM
